biological target: ClOr2/Orco (Cimex lectularius); construct: entire coding regions of ClOr2 and ClOrco in pT7Ts, cRNAs co-injected into Xenopus oocytes; heteromeric receptor channel; clusters with Rhodnius RpOr105; with Odorant receptor coreceptor; assay: two-electrode voltage clamp, Xenopus oocytes
Sequence (A0A8I6SBL2 1-382): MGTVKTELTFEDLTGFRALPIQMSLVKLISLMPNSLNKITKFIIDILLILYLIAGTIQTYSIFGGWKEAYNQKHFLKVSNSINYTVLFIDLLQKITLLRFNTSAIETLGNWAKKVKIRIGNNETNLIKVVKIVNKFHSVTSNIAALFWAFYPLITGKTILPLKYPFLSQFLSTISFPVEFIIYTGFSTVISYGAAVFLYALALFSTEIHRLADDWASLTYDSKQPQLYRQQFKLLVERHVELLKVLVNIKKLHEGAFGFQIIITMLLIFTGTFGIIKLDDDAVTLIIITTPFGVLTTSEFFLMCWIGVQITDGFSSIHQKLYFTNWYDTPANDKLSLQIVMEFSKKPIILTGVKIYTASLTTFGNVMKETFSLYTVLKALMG
Sequence (A0A0A0U7J0 1-451 partner): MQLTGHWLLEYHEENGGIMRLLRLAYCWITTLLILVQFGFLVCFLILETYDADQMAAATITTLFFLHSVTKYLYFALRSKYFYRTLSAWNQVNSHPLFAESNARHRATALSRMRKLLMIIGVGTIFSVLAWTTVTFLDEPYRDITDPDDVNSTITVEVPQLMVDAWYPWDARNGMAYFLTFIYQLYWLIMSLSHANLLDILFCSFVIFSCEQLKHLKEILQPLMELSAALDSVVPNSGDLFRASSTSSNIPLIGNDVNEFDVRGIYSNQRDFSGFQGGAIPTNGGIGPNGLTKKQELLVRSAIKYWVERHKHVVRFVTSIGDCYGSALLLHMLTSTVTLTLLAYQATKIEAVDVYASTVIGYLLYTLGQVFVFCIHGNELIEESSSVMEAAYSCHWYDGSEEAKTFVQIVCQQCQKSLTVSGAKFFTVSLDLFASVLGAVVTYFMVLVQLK
measurement label: EC50 (µM)
Return type: number; implicit unit µM.

Annotate the compound CCCCCCCCCC=O with its measured EC50.
6.42

Origin of values: paper PMC4629130
